# Tested on: NCI-H226 lung
# assay text: NCI-60 one-dose screen, 48 h
# study conditions: 10 µM unless noted
The panel holds about 83,000 compounds, 20% with a hit somewhere; the sample as a whole holds those more often. Calls of active or inactive are those of the source. How the source made its calls: active means growth percent below 10; inactive means the rest.
Bench note: report the call from true (1) (active), false (0) (inactive)

# compound, group
records = [
    ("Cn1c(=O)c2c(nc(N/N=C/c3ccccc3Cl)n2C)n(C)c1=O", "false (0)"),
]

Which outcome did this test record for the compound O=C(O)c1cc2cc(OCc3ccccc3)ccc2[nH]1 ?
false (0)

Which outcome did this test record for the compound C#CCO[C@H]1CC[C@H](OCC#C)[C@@H]2[C@H]1[C@H]1C[C@@H]3[C@@]4(C)CCC[C@@](C)(C(=O)OC)[C@@H]4CC[C@@]23C=C1C(C)C ?
false (0)

Which outcome did this test record for the compound C=C1C(=O)O[C@H]2[C@H]1CC/C(COC(=O)NCc1cccc(OC)c1)=C\CC[C@@]1(C)O[C@@H]21 ?
false (0)

Which outcome did this test record for the compound S=C(Nc1ccc(Cl)cc1)Nc1ccc(Cl)cc1 (tested in a mixture with another compound) ?
false (0)

Which outcome did this test record for the compound COc1cc(C2CC(c3ccc(Cl)cc3)=NN2C(C)=O)ccc1Oc1nc2c(c(=O)n(C)c(=O)n2C)n1C (stereo not drawn) ?
false (0)

Which outcome did this test record for the compound N/C(=N\OC(=O)c1ccccc1)C(Cc1ccccc1)C(=O)NOC(=O)c1ccccc1 (stereo not drawn) ?
false (0)

Which outcome did this test record for the compound O=C(Nc1ccc(-n2ccc3c(NC(=O)c4ccccc4)nccc32)cc1)c1ccc(N2CCOCC2)c(C(F)(F)F)c1 ?
false (0)
